Ref: patent US9365551B2

Target Or System: 6His-Tev-LRRK2 (1326-2527) (Homo sapiens, UniProt Q5S007)
Construct: A LRRK2 cDNA encoding residues 1326-2527 was received from Dundee University; made in house; host or cells: Spodoptera frugiperda (Sf9) insect cells, baculovirus (pFB-HTb)
Sequence (Q5S007 1326-2527): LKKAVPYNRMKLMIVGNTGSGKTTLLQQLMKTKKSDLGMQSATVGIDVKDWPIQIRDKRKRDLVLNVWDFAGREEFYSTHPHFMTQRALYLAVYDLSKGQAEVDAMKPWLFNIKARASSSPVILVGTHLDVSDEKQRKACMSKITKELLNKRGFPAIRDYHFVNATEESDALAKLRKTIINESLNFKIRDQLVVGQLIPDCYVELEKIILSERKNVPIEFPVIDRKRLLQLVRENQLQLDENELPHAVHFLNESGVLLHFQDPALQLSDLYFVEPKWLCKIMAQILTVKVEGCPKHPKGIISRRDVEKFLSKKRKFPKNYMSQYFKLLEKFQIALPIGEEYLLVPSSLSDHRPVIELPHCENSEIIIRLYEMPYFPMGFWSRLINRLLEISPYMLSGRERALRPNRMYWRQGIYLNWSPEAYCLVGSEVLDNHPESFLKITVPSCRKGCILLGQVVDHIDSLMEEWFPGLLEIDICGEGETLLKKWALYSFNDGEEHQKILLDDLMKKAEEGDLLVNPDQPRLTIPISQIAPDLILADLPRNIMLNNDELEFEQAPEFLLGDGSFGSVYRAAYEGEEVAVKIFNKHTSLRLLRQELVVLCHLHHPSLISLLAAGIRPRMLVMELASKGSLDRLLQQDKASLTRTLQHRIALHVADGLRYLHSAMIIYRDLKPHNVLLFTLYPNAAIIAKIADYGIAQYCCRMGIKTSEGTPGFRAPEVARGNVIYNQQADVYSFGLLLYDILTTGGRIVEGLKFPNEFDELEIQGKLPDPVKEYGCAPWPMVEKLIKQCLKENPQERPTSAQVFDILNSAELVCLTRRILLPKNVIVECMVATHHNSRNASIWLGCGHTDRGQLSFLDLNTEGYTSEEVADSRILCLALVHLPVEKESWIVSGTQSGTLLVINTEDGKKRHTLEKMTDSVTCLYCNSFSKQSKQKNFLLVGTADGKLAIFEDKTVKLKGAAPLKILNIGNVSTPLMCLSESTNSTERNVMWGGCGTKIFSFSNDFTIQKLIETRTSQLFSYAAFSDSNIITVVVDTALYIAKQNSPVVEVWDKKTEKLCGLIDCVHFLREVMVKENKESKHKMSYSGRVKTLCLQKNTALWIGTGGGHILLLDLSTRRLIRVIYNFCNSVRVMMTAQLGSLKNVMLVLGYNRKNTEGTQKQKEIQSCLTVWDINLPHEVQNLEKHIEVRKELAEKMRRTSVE
Protocol: LRRK2 AlphaScreen desensitised protein substrate assay
Assay type: biochemical
Condition Label: mean pIC50 of multiple test results; stated as threshold; read-out: pIC50 in the LRRK2 alphascreen desensitised protein substrate assay (bounds) (converted)
In this section, each of the compounds is paired with its reported IC50.

Recorded results for 6 compounds are shown here.
| Compound | IC50 |
| --- | --- |
| Cc1cc(C(=O)Nc2ccnnc2)c(OCc2ccccc2)cc1Br [Example 10] | ≤ 0.316 µM |
| Cc1nocc1NC(=O)c1cc(-c2cnn(C)c2)c(CN2CCOCC2)cc1OCc1ccc(F)cc1 [Example 18] | ≤ 25.1 µM |
| O=C(Nc1cccnc1)c1cc(Cl)c(C(=O)N2CCC(F)(F)C2)cc1OCc1ccccc1 [Example 41] | ≤ 0.316 µM |
| CN1CCN(C(=O)c2cc(OCc3ccccc3)c(C(=O)Nc3cccnn3)cc2Cl)CC1 [Example 56] | ≤ 25.1 µM |
| O=C(Nc1ccnnc1)c1cc(C(F)(F)F)c(CN2CCOCC2)cc1OCc1ccccc1 [Example 34] | ≤ 25.1 µM |
| CN1CCN(C(=O)c2cc(OCc3ccccc3)c(C(=O)Nc3ccccc3)cc2Cl)CC1 [Example 57] | ≤ 25.1 µM |

Identify measured IC50 corresponding to Cn1cc(-c2cc(C(=O)Nc3cccnc3)c(OCc3ccccc3)cc2C(=O)N2CCOCC2)cn1 [Example 23]
≤ 0.316 µM
